# target.under.test: Adenylate cyclase type 1 (Homo sapiens, UniProt Q08828)
# Sequence (Q08828 whole entry): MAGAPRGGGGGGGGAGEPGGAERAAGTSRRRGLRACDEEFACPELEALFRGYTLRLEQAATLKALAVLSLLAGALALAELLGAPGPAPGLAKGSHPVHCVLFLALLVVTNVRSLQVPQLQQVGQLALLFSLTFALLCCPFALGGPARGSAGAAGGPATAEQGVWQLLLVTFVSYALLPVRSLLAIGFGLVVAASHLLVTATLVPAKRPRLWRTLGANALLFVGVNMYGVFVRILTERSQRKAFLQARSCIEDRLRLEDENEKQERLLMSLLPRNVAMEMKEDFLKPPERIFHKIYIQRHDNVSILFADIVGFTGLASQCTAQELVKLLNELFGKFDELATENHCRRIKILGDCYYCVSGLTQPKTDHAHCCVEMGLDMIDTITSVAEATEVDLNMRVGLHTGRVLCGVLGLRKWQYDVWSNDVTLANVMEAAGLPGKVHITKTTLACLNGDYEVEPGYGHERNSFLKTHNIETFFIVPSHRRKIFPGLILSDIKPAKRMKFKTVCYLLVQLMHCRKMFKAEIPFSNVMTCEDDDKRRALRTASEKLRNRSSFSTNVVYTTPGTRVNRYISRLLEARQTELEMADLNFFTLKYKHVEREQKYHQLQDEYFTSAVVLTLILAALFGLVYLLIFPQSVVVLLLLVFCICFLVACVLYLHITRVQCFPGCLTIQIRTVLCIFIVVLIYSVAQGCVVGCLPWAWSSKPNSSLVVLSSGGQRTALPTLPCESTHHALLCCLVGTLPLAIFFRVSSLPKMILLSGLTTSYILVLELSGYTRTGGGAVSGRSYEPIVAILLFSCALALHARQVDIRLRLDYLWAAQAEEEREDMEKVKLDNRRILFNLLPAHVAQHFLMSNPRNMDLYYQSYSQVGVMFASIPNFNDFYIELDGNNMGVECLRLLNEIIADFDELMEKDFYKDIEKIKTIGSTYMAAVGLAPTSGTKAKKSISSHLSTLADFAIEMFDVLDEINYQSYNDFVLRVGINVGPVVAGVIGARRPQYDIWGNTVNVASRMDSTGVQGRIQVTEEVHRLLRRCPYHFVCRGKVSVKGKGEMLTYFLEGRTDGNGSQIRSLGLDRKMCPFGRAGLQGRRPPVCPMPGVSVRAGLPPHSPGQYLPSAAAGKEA
Checkbox rule: IC50 lower than 1000 nM = Criterion met; IC50 not lower than 1000 nM = Criterion not met.

Task: Say whether its IC50 is strictly beneath 1000 nM. Entry: CCc1ccc(C(=O)Nc2cc(C)nn2-c2nc(CC)cc(=O)[nH]2)cc1
Output: Criterion met

Task: Would you kindly repeat that for CCc1cc(=O)[nH]c(-n2nc(C)cc2NC(=O)c2ccccc2CC)n1 ?
Output: Criterion not met

Task: Follow-up entry: CCc1cc(=O)[nH]c(-n2nc(C)cc2NC(=O)c2ccco2)n1
Output: Criterion not met

Task: Likewise for CCc1cc(=O)[nH]c(-n2nc(C)cc2NC(=O)c2cccc(Br)c2)n1 ?
Output: Criterion met

Task: Another: CCc1cc(=O)[nH]c(-n2nc(C)cc2NC(=O)c2ccccc2)n1
Output: Criterion not met

Task: Another: CCc1cc(=O)[nH]c(-n2nc(C)cc2NC(=O)c2ccc(C)c(C)c2)n1
Output: Criterion met

Task: What about CCc1cc(=O)[nH]c(-n2nc(C)cc2NC(=O)c2ccc(O)cc2)n1 ?
Output: Criterion not met

Task: Here is the next molecule: CCc1cc(=O)[nH]c(-n2nc(C)cc2NC(=O)Cc2ccccc2F)n1
Output: Criterion not met

Task: Please do the same for CCc1cc(=O)[nH]c(-n2nc(C)cc2NC(=O)c2cc(C)cc(C)c2)n1 as well.
Output: Criterion met

Task: What would you report for CCc1cc(=O)[nH]c(-n2nc(C)cc2NC(=O)c2cccc(C)c2)n1 ?
Output: Criterion met

Task: Then this molecule: CCc1cc(=O)[nH]c(-n2nc(C)cc2NC(=O)c2cccc(F)c2)n1
Output: Criterion not met

Task: Another molecule to check: CCc1cc(=O)[nH]c(-n2nc(C)cc2NC(=O)c2ccc(N(C)C)cc2)n1
Output: Criterion not met

Task: And then CCc1cc(=O)[nH]c(-n2nc(C)cc2NC(=O)c2cccc(Cl)c2)n1 , what is it?
Output: Criterion met

Task: Consider next the molecule CCc1cc(=O)[nH]c(-n2nc(C)cc2NC(=O)c2ccc(OCOC)cc2)n1 in the same way.
Output: Criterion not met

Task: Same lookup for CCc1cc(=O)[nH]c(-n2nc(C)cc2NC(=O)c2ccc(Cl)cc2)n1 , please.
Output: Criterion met

Task: Now consider CCc1cc(=O)[nH]c(-n2nc(C)cc2NC(=O)c2cccc(C3CC3)c2)n1 .
Output: Criterion met

Task: Now consider CCc1cc(=O)[nH]c(-n2nc(C)cc2NC(=O)c2cccc(-c3ccccc3)c2)n1 .
Output: Criterion met

Task: Same read-out for CCc1cc(=O)[nH]c(-n2nc(C)cc2NC(=O)c2cccc(OC)c2)n1 ?
Output: Criterion not met

Task: Please answer likewise for CCc1cc(=O)[nH]c(-n2nc(C)cc2NC(=O)Cc2cccc(C)c2)n1
Output: Criterion not met

Task: Continue with CCc1cc(=O)[nH]c(-n2nc(C)cc2NC(=O)c2cccc(C(C)(C)C)c2)n1
Output: Criterion met
